B1: Azoarcus group I ribozyme (parent)
chain: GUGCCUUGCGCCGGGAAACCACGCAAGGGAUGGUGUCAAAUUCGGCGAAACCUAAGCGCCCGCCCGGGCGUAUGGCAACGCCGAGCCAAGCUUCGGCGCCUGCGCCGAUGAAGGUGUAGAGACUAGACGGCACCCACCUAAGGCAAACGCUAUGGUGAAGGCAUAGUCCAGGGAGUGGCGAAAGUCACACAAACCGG

# Variants of: B1
# measurement notes: reverse-splicing fitness (ratio to wild type); higher = more active; in vitro selection; Mg2+ level not given
Param threshold (0.008) applies to reverse-splicing fitness; output TRUE when value >= threshold, FALSE when value < threshold.

mutation annotation: C82A A111C A120C A145U C150G C169U U176A
group: FALSE
--
mutation annotation: C82G A120C A145G C150A C169A U176C
group: TRUE
--
mutation annotation: C82G A111C A120U C150A C169A U176G
group: FALSE
--
mutation annotation: C82A A111G A120U A145C C150A
group: FALSE
--
mutation annotation: C82A A111C A120U A145U C169U
group: FALSE
--
mutation annotation: C82U A120C A145G C150G C169U
group: TRUE
--
mutation annotation: A120U A145C C150G C169A
group: FALSE
--
mutation annotation: C82U A120G C150G C169A U176G
group: FALSE
--
mutation annotation: A111C A145U C150G U176C
group: TRUE
--
mutation annotation: C82U A111U A145G C150A
group: TRUE
--
mutation annotation: A111U A120U A145G C150A C169G
group: TRUE
--
mutation annotation: C82U C150G U176A
group: TRUE
--
mutation annotation: C82U A111C A145C
group: TRUE
--
mutation annotation: C82A A111G A120G A145C C150A C169A U176C
group: FALSE
--
mutation annotation: C82U A111C A120U A145C C169U U176A
group: FALSE
--
mutation annotation: C82G A111G A145C C169U U176A
group: TRUE
--
mutation annotation: C82A A120U A145U C169U U176C
group: FALSE
--
mutation annotation: C82U A111U U176G
group: TRUE
--
mutation annotation: C82G A120G A145U C150A C169A U176A
group: TRUE
--
mutation annotation: C82U A111G A120U A145C C169U U176G
group: FALSE
--
mutation annotation: C82G A111C A120U A145C C150A C169U U176C
group: FALSE
--
mutation annotation: C82A A111U A120C A145G C169U U176A
group: TRUE
--
mutation annotation: C82G A120U A145U C150G U176A
group: FALSE
--
mutation annotation: C82A A145C C150A C169U U176A
group: TRUE
--
mutation annotation: C82U A111G A120U C150G
group: FALSE
--
mutation annotation: C82U A120C A145G U176C
group: TRUE
--
mutation annotation: A111U A145C C150G C169A
group: TRUE
--
mutation annotation: C82A A111C A120G A145G C169G
group: TRUE
--
mutation annotation: A111U A120U A145U C150U
group: TRUE
--
mutation annotation: A145G C150G U176G
group: TRUE
--
mutation annotation: C82G A111G A145U C150U C169U U176A
group: TRUE
--
mutation annotation: C82G A111U A120C C150U C169U U176G
group: FALSE
--
mutation annotation: A111G C150U C169A U176C
group: TRUE
--
mutation annotation: A111U A120G A145G C150A C169U U176G
group: FALSE
